condition details: 281.9 K; 101.33 kPa; Liquid; Pulse-echo method
readout kind: speed of sound (m/s)

compound	value observed
CCC(=O)[O-].C[NH2+]CCO [2-hydroxy-N-methylethanaminium propionate]	1739.8
C[NH2+]CCO.O=C[O-] [2-hydroxy-N-methylethanaminium formate]	1847.2
CCCCC(=O)[O-].C[NH2+]CCO [2-hydroxy-N-methylethanaminium pentanoate]	1602.8
CC(C)C(=O)[O-].C[NH2+]CCO [2-hydroxy-N-methylethanaminium isobutyrate]	1658.5
CCCC(=O)[O-].C[NH2+]CCO [N-methyl-2-hydroxyethylammonium butanoate]	1669.2

###

condition details: 334.91 K; 101.33 kPa; Liquid; Vibrating tube method
readout kind: mass density (kg/m3)

compound	measurement unit	mass density
CC(=O)[O-].C[NH2+]CCO [N-methyl-2-hydroxyethylammonium acetate]	kg/m3	1078.23
CC(C)C(=O)[O-].C[NH2+]CCO [2-hydroxy-N-methylethanaminium isobutyrate]	kg/m3	1019.07
C[NH2+]CCO.O=C[O-] [2-hydroxy-N-methylethanaminium formate]	kg/m3	1108.05
CCCCC(=O)[O-].C[NH2+]CCO [2-hydroxy-N-methylethanaminium pentanoate]	kg/m3	991.004
CCCC(=O)[O-].C[NH2+]CCO [N-methyl-2-hydroxyethylammonium butanoate]	kg/m3	1014.01
CCC(=O)[O-].C[NH2+]CCO [2-hydroxy-N-methylethanaminium propionate]	kg/m3	1046.82

###

condition details: 335.91 K; 101.33 kPa; Liquid; Pulse-echo method
readout kind: speed of sound (m/s)

compound	speed of sound / m/s
CCCCC(=O)[O-].C[NH2+]CCO [2-hydroxy-N-methylethanaminium pentanoate]	1432.4
CCCC(=O)[O-].C[NH2+]CCO [N-methyl-2-hydroxyethylammonium butanoate]	1496.2
CC(C)C(=O)[O-].C[NH2+]CCO [2-hydroxy-N-methylethanaminium isobutyrate]	1504
CCC(=O)[O-].C[NH2+]CCO [2-hydroxy-N-methylethanaminium propionate]	1577.5
C[NH2+]CCO.O=C[O-] [2-hydroxy-N-methylethanaminium formate]	1742.5

###

condition details: 300.65 K; 101.33 kPa; Liquid
readout kind: viscosity (mPa·s)

// below: answered compounds
compound	viscosity [mPa·s]
CCCC(=O)[O-].C[NH2+]CCO [N-methyl-2-hydroxyethylammonium butanoate]	256.7
CCC(=O)[O-].C[NH2+]CCO [2-hydroxy-N-methylethanaminium propionate]	182.88

P: CCCCC(=O)[O-].C[NH2+]CCO [2-hydroxy-N-methylethanaminium pentanoate]
Q: C[NH2+]CCO.O=C[O-] [2-hydroxy-N-methylethanaminium formate]
Problem: Given the entries P and Q , determine which has the lower reported viscosity. Refer to your chosen entry by its label in the reply.
Q

###

condition details: 331.91 K; 101.33 kPa; Liquid; Vibrating tube method
readout kind: mass density (kg/m3)

compound	mass density [kg/m3]
CC(=O)[O-].C[NH2+]CCO [N-methyl-2-hydroxyethylammonium acetate]	1080.13
CC(C)C(=O)[O-].C[NH2+]CCO [2-hydroxy-N-methylethanaminium isobutyrate]	1021.13
CCCCC(=O)[O-].C[NH2+]CCO [2-hydroxy-N-methylethanaminium pentanoate]	993.121
CCC(=O)[O-].C[NH2+]CCO [2-hydroxy-N-methylethanaminium propionate]	1048.88
CCCC(=O)[O-].C[NH2+]CCO [N-methyl-2-hydroxyethylammonium butanoate]	1016.13
C[NH2+]CCO.O=C[O-] [2-hydroxy-N-methylethanaminium formate]	1109.6
